Experiment: Pharmacokinetic study in rats after single gavage dose, plasma levels by UPLC-MS/MS
Format: in vivo, Sprague–Dawley Rats
Settings: Sprague-Dawley, po; rat plasma, intragastric single dose 8.00 mg/kg, n = 6, Mean ± SD; read-out: CLz/F (converted)
Experimental: Quantitative analysis was performed using a UPLC-MS/MS system consisting of a Waters Xevo TQ-S triple quadrupole tandem mass spectrometer and a Waters ACQUITY UPLC I-Class system (Milford, MA, USA) used in this experiment. […] Plasma protein composition interfered with detection sensitivity. […] 100 μL of the supernatant was transferred to an autosampler vial for quantitative analysis by the UPLC-MS/MS system. […]
outcome measure: CL/F (mL/min/kg)
Give a bare numeral; the unit mL/min/kg is implied.

Task: Please look at this compound and report its CL/F: `CN(C)Cc1c(C(=O)NCCOc2ccc(C(=O)NO)cc2)oc2ccccc12`
Result: 267

* * *

Assay: Pharmacokinetic study in rats after single gavage dose, plasma levels by UPLC-MS/MS
Assay type: in vivo, Sprague–Dawley Rats
Settings: Sprague-Dawley, po; rat plasma, intragastric single dose 8.00 mg/kg, n = 6, Mean ± SD
outcome measure: Cmax (ng/mL)
State just the number; it will be interpreted in ng/mL.

Task: Fill in reported Cmax for this entry: `CN(C)Cc1c(C(=O)NCCOc2ccc(C(=O)NO)cc2)oc2ccccc12`
Result: 28.2

* * *

Test: Pharmacokinetic study in rats after single gavage dose, plasma levels by UPLC-MS/MS
Type: in vivo, Sprague–Dawley Rats
Details: Sprague-Dawley, rat, plasma, po, 8 mg/kg, rat plasma, intragastric single dose 8.00 mg/kg, n = 6, Mean ± SD
outcome measure: Tmax

Task: Item `CN(C)Cc1c(C(=O)NCCOc2ccc(C(=O)NO)cc2)oc2ccccc12` : provide Tmax
Result: ~1.39 h

* * *

Assay: Pharmacokinetic study in rats after single gavage dose, plasma levels by UPLC-MS/MS
Type: in vivo, Sprague–Dawley Rats
Conditions: Sprague-Dawley, po; rat plasma, intragastric single dose 8.00 mg/kg, n = 6, Mean ± SD
outcome measure: AUC(0-inf) (ng·h/mL)
Field format: number, assumed ng·h/mL, no unit text.

Task: Note AUC(0-inf) for the molecule shown: `CN(C)Cc1c(C(=O)NCCOc2ccc(C(=O)NO)cc2)oc2ccccc12`
Result: 501

* * *

Assay: Pharmacokinetic study in rats after single gavage dose, plasma levels by UPLC-MS/MS
Format: in vivo, Sprague–Dawley Rats
Conditions: Sprague-Dawley, po; rat plasma, intragastric single dose 8.00 mg/kg, n = 6, Mean ± SD; read-out: MRT0-t
Method: Quantitative analysis was performed using a UPLC-MS/MS system consisting of a Waters Xevo TQ-S triple quadrupole tandem mass spectrometer and a Waters ACQUITY UPLC I-Class system (Milford, MA, USA) used in this experiment. […] Plasma protein composition interfered with detection sensitivity. […] 100 μL of the supernatant was transferred to an autosampler vial for quantitative analysis by the UPLC-MS/MS system. […]
outcome measure: MRT last (h)
A number alone suffices; assume h.

Task: Using known records, supply MRT last for `CN(C)Cc1c(C(=O)NCCOc2ccc(C(=O)NO)cc2)oc2ccccc12`
Result: 14.8
